- Test system: YT (IL-2 2.5 ng/mL)
- measurement protocol: percent inhibition of viability; higher = more inhibition;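 note: normalised to DMSO-only wells as negative and benzethonium chloride as positive control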
- measurement setup: 72 h; 1000 nM
I'd be grateful if you could share measured percent inhibition of viability for these entries.
Give bare numbers, in %.

Worked cases, percent inhibition of viability given:
O=C(Nc1cccnc1)N1CCC(Cc2cccc(Oc3ccc(C(F)(F)F)cn3)c2)CC1 [PF-3845] (max concentration tested 10000 nM) : 5.87
Cc1ccc(F)c(NC(=O)Nc2ccc(-c3cccc4[nH]nc(N)c34)cc2)c1 [Linifanib] (max concentration tested 1000 nM) : 7.04
CCc1cc2c(cc1N1CCC(N3CCOCC3)CC1)C(C)(C)c1[nH]c3cc(C#N)ccc3c1C2=O [Alectinib] (max concentration tested 1000 nM) : 2.48
CC(C)c1cc(-c2n[nH]c(=O)n2-c2ccc3c(ccn3C)c2)c(O)cc1O [Ganetespib] (max concentration tested 1000 nM) : 99.1

List the reported percent inhibition of viability of each molecule below.
1. C#Cc1cccc(Nc2ncnc3cc(OC)c(OCCCCCCC(=O)NO)cc23)c1 [CUDC-101] (max concentration tested 10000 nM)
2. COCC[n+]1c2c(n(Cc3cnccn3)c1C)C(=O)c1ccccc1C2=O [YM155] (max concentration tested 10000 nM)
3. O=C1CN2Cc3c(ccc(Cl)c3Cl)N=C2N1 [Anagrelide] (max concentration tested 10000 nM)
4. O=C(/C=C/c1cccc(S(=O)(=O)Nc2ccccc2)c1)NO [Belinostat] (max concentration tested 10000 nM)
5. C[C@@H](Oc1cc(-n2cnc3ccc(CN4CCN(C)CC4)cc32)sc1C(N)=O)c1ccccc1C(F)(F)F (max concentration tested 10000 nM)
6. CN1CCC(COc2cnc(-c3cccc(Cn4nc(-c5cccc(C#N)c5)ccc4=O)c3)nc2)CC1 (max concentration tested 1000 nM)

[out]
1. 95.4
2. 106
3. -6.4
4. 105
5. 64
6. -0.42

List the reported percent inhibition of viability of each molecule below.
1. Nc1ccn([C@@H]2O[C@H](CO)[C@@H](O)[C@@H]2O)c(=O)n1 [Cytarabine] (max concentration tested 10000 nM)
2. CC(=O)O[C@@]12CO[C@@H]1C[C@H](O)[C@@]1(C)C(=O)[C@H](O)C3=C(C)[C@@H](OC(=O)[C@H](O)[C@@H](NC(=O)OC(C)(C)C)c4ccccc4)C[C@@](O)([C@@H](OC(=O)c4ccccc4)[C@H]21)C3(C)C [Docetaxel] (max concentration tested 1000 nM)

[out]
1. 19.1
2. 105

###

- Tested on: IMC-1 (IL-2 20 ng/mL)
- measurement protocol: percent inhibition of viability; higher = more inhibition
- measurement setup: 72 h; 5000 nM
parameter: percent inhibition of viability
Answer shape: numeric part, then the unit.

List the reported percent inhibition of viability of each molecule below.
1. CCCCC(=O)OCC(=O)[C@]1(O)Cc2c(O)c3c(c(O)c2[C@@H](O[C@H]2C[C@H](NC(=O)C(F)(F)F)[C@H](O)[C@H](C)O2)C1)C(=O)c1c(OC)cccc1C3=O [Valrubicin] (max concentration tested 5000 nM)
2. CCC(C)n1ncn(-c2ccc(N3CCN(c4ccc(OCC5COC(Cn6cncn6)(c6ccc(Cl)cc6Cl)O5)cc4)CC3)cc2)c1=O (centres undefined) [Itraconazole] (max concentration tested 5000 nM)

[out]
1. 101%
2. 29.4%

List the reported percent inhibition of viability of each molecule below.
1. C[C@@H]1CCN(C(=O)CC#N)C[C@@H]1N(C)c1ncnc2[nH]ccc12 [Tofacitinib] (max concentration tested 5000 nM)
2. CC[C@@]1(O)C(=O)OCc2c1cc1n(c2=O)Cc2cc3ccccc3nc2-1 [Camptothecin] (max concentration tested 5000 nM)

[out]
["92.1%", "100%"]
